Record set of AC50 for target or system Equilibrative nucleoside transporter 1 (Homo sapiens). Further: assay procedure not described here.

Worked set:
COMPOUND	AC50
CN(C)C(=O)Oc1cc(OC(=O)N(C)C)cc(C(O)CNC(C)(C)C)c1 (configuration not stated)	> 30 µM
C=CC1=C(C(=O)O)N2C(=O)[C@@H](NC(=O)/C(=N\OCC(=O)O)c3csc(N)n3)[C@H]2SC1	> 30 µM
CCCN(CCC)CCc1cccc2c1CC(=O)N2	> 30 µM

Quick batch: AC50 for everything below.
1. NC(=O)CCC/N=C(\c1ccc(Cl)cc1)c1cc(F)ccc1O [PROGABIDE]
2. COc1cccc2c1C(=O)c1c(O)c3c(c(O)c1C2=O)C[C@@](O)(C(C)=O)C[C@@H]3O[C@H]1C[C@H](N)[C@H](O)[C@H](C)O1
3. CC(C)(C)NCC(O)c1cc(Cl)c(N)c(Cl)c1 (configuration not stated)
4. O=C(Nc1nc(-c2cc(Cl)cs2)c(N2CCN(C3CCCCC3)CC2)s1)c1cnc(N2CCC(C(=O)O)CC2)c(Cl)c1
5. CC1(C)O[C@@H]2C[C@H]3[C@@H]4C[C@H](F)C5=CC(=O)C=C[C@]5(C)[C@H]4[C@@H](O)C[C@]3(C)[C@]2(C(=O)CO)O1 [FLUNISOLIDE]
6. C[C@@H]1CCC[C@H](C)N1NC(=O)c1ccc(Cl)c(S(N)(=O)=O)c1 [CLOPAMIDE]
7. C=C[C@@]1(C)CC(=O)[C@]2(O)[C@@]3(C)[C@@H](O)CCC(C)(C)[C@@H]3[C@H](OC(=O)CCN(C)C)[C@H](OC(C)=O)[C@@]2(C)O1

["> 10 µM", "14.3 µM", "> 30 µM", "> 10 µM", "> 30 µM", "> 30 µM", "> 30 µM"]

Quick batch: AC50 for everything below.
1. COC(=O)N[C@@H](C)CNc1nccc(-c2cn(C(C)C)nc2-c2cc(Cl)cc(NS(C)(=O)=O)c2F)n1
2. CCCN(CC)C(CC)C(=O)Nc1c(C)cccc1C (configuration not stated)
3. CC(C)C[C@H](CN)CC(=O)O
4. CCCC(C)(COC(N)=O)COC(=O)NC(C)C (configuration not stated)
5. COc1ccc(Cc2nccc3cc(OC)c(OC)cc23)cc1OC
6. CC(C)CC(N(C)C)C1(c2ccc(Cl)cc2)CCC1 (configuration not stated)

25.9 µM
> 30 µM
> 30 µM
> 30 µM
10 µM
> 30 µM

Quick batch: AC50 for everything below.
1. Cc1cc(CC(=O)O)n(C)c1C(=O)c1ccc(Cl)cc1 [ZOMEPIRAC]
2. COC1=C(OC)C(=O)C(CCCCCCCCCCO)=C(C)C1=O
3. COc1cc2nccc(Oc3ccc(NC(=O)Nc4cc(C)on4)c(Cl)c3)c2cc1OC
4. N[C@H](Cc1cc(I)c(Oc2cc(I)c(O)c(I)c2)c(I)c1)C(=O)O

["> 30 µM", "21.9 µM", "> 3 µM", "> 30 µM"]

Quick batch: AC50 for everything below.
1. CN1C[C@H](C(=O)N[C@]2(C)O[C@@]3(O)[C@@H]4CCCN4C(=O)[C@H](Cc4ccccc4)N3C2=O)C[C@@H]2c3cccc4[nH]cc(c34)C[C@H]21 [DIHYDROERGOTAMINE]
2. CN(c1nccc(=O)[nH]1)C1CCN(c2nc3ccccc3n2Cc2ccc(F)cc2)CC1

["> 30 µM", "> 30 µM"]

Quick batch: AC50 for everything below.
1. CCCC[C@H](C)C[C@H](O)/C=C/[C@H]1[C@H](O)CC(=O)[C@@H]1CCCC/C=C/C(=O)O
2. CC(=O)c1ccc2c(c1)N(CCCN1CCC(CCO)CC1)c1ccccc1S2
3. CN(C)c1cc(NC(=O)CNC(C)(C)C)c(O)c2c1C[C@H]1C[C@H]3[C@H](N(C)C)C(O)=C(C(N)=O)C(=O)[C@@]3(O)C(O)=C1C2=O
4. COc1cc2c(Nc3ccc(Br)cc3F)ncnc2cc1OCC1CCN(C)CC1
5. CC1(C)S[C@@H]2[C@H](NC(=O)[C@H](N)c3ccc(O)cc3)C(=O)N2[C@H]1C(=O)O

1. > 30 µM
2. > 30 µM
3. 39.5 µM
4. > 30 µM
5. > 30 µM

Quick batch: AC50 for everything below.
1. Nc1nc(F)nc2c1ncn2[C@@H]1O[C@H](COP(=O)(O)O)[C@@H](O)[C@@H]1O [FLUDARABINE PHOSPHATE]
2. CC(/C=C1\SC(=S)N(CC(=O)O)C1=O)=C\c1ccccc1
3. NC(=O)c1ncn([C@@H]2O[C@H](CO)[C@@H](O)[C@H]2O)n1

1: > 30 µM; 2: 15 µM; 3: > 30 µM

Quick batch: AC50 for everything below.
1. CC1(C)O[C@@H]2[C@@H](CO[C@@]3(COS(N)(=O)=O)OC(C)(C)O[C@@H]23)O1 [TOPIRAMATE]
2. O=c1oc2ccccc2c(O)c1Cc1c(O)c2ccccc2oc1=O

1. > 30 µM
2. > 10 µM

The values you see were collected from ChEMBL document CHEMBL5291721.
